experiment: Pharmacokinetics of acetate of Compound 22 in SD rats with single and repeated administration; type: in vivo; details: female, Sprague-Dawley, rat, plasma, iv, 2 mg/kg, Group 1 IV 2.0 mg/kg single, Female, read-out: AUC0-t
observedProperty: AUC(0-t) (ng·h/mL)

compound	observedProperty	result
CC(=O)O.Nc1nc(NCCc2ccc(NC3COC3)cc2)nc2nc(-c3ccco3)nn12 [Acetate of Compound 22]	AUC(0-t)	5850

====

assay: Pharmacokinetics of Compounds 27, 40, 22 and 41 in ICR mice in different modes of administration; format: in vivo; details: ICR, mouse, in vivo, iv, 1 mg/kg
observedProperty: half-life (min)

compound	u	result
Cn1nnc(-c2ccc(CCNc3nc(N)n4nc(-c5ccco5)nc4n3)cc2)n1 [Compound 40]	min	149
COCCNc1ccc(CCNc2nc(N)n3nc(-c4ccco4)nc3n2)cc1 [Compound 27]	min	40.2
Nc1nc(NCCc2ccc(NC3COC3)cc2)nc2nc(-c3ccco3)nn12 [Compound 22]	min	56.4
CCn1nnc(-c2ccc(CCNc3nc(N)n4nc(-c5ccco5)nc4n3)cc2)n1 [Compound 41]	min	16.8

====

assay: Pharmacokinetics of Compounds 27, 40, 22 and 41 in ICR mice in different modes of administration; type: in vivo; conditions: ICR, mouse, in vivo, po, 30 mg/kg, PO (single)

compound	u	AUC(0-t)
COCCNc1ccc(CCNc2nc(N)n3nc(-c4ccco4)nc3n2)cc1	ng·h/mL	33600
Nc1nc(NCCc2ccc(NC3COC3)cc2)nc2nc(-c3ccco3)nn12	ng·h/mL	18000
Cn1nnc(-c2ccc(CCNc3nc(N)n4nc(-c5ccco5)nc4n3)cc2)n1	ng·h/mL	24400

====

assay: Pharmacokinetics of acetate of Compound 22 in SD rats with single and repeated administration; type: in vivo; details: Sprague-Dawley (SD), rat, plasma, po, 189 mg/kg, oral 189 mg/kg, read-out: drug exposure (AUC0-t)
observedProperty: AUC(0-t) (µg·h/mL)

molecule	result
CC(=O)O.Nc1nc(NCCc2ccc(NC3COC3)cc2)nc2nc(-c3ccco3)nn12 [Acetate of Compound 22]	241

====

assay: Pharmacokinetics of acetate of Compound 22 in SD rats with single and repeated administration; type: in vivo; conditions: female, Sprague-Dawley, rat, plasma, po, 63 mg/kg, Group 5 PO 63 mg/kg repeated, Day 7, Female, read-out: Cmax
observedProperty: Cmax

molecule	result
CC(=O)O.Nc1nc(NCCc2ccc(NC3COC3)cc2)nc2nc(-c3ccco3)nn12 [Acetate of Compound 22]	45.6 µg/mL

====

assay: Pharmacokinetics of acetate of Compound 22 in SD rats with single and repeated administration; assay type: in vivo; conditions: both sexes, Sprague-Dawley, rat, plasma, po, 21 mg/kg, Group 2 PO 21 mg/kg single, Overall, read-out: Tmax (median)

compound	Tmax / min
CC(=O)O.Nc1nc(NCCc2ccc(NC3COC3)cc2)nc2nc(-c3ccco3)nn12 [Acetate of Compound 22]	30

====

Test: Pharmacokinetics of acetate of Compound 22 in SD rats with single and repeated administration
Assay type: in vivo
Details: female, Sprague-Dawley, rat, plasma, po, 63 mg/kg, Group 5 PO 63 mg/kg repeated, Day 1, Female, read-out: Cmax
Procedure: The formulation for Group 5 was prepared before administration on Day 1, and then, divided into daily doses and stored at 5±3° C. […] Pharmacokinetic data was calculated using the linear logarithmic trapezoidal method, with a weight of 1/(Y*Y). Samples with the sample concentration below the lower limit of quantification were excluded from the calculation of pharmacokinetic parameters. […]

compound	Cmax, ng/mL
CC(=O)O.Nc1nc(NCCc2ccc(NC3COC3)cc2)nc2nc(-c3ccco3)nn12 [Acetate of Compound 22]	37700
